# Tested On: T1, IL-18 binding protein (IL-18BP) (UniProt O95998 31-194)
# T1 sequence (looked up): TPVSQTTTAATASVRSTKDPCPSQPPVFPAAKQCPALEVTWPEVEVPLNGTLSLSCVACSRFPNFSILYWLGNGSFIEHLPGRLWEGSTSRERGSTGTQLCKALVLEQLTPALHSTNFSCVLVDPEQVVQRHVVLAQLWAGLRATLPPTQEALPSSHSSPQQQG
# Procedure Summary: cell-based or functional assay
Measured Ratio (-BP/+BP), DF-25000007 values are reported for all entries that follow.
Measured Property: Ratio (-BP/+BP), DF-25000007

Binder: IL-18 variant E6N, D54N, S55N, N91H, R104P (ligand) YFGKLNSKLSVIRNLNDQVLFIDQGNRPLFEDMTDSDMRDNAPRTIFIISMYKNNQPRGMAVTISVKSEKISTLSSENKIISFKEMNPPDHIKDTKSDIIFFQPSVPGHDNKMQFESSSYEGYFLASEKERDLFKLILKKEDELGDRSIMFTVQNED
Val: 0.78

Binder: IL-18 variant G3P, E6N, D54Y, T63S, N91S, R104Q (ligand) YFPKLNSKLSVIRNLNDQVLFIDQGNRPLFEDMTDSDMRDNAPRTIFIISMYKYSQPRGMAVSISVKSEKISTLSSENKIISFKEMNPPDSIKDTKSDIIFFQQSVPGHDNKMQFESSSYEGYFLASEKERDLFKLILKKEDELGDRSIMFTVQNED
Val: 0.89

Binder: IL-18 variant G3P, E6I, K53N, D54W, S55P, T63S, N91L, R104Q (ligand) YFPKLISKLSVIRNLNDQVLFIDQGNRPLFEDMTDSDMRDNAPRTIFIISMYNWPQPRGMAVSISVKSEKISTLSSENKIISFKEMNPPDLIKDTKSDIIFFQQSVPGHDNKMQFESSSYEGYFLASEKERDLFKLILKKEDELGDRSIMFTVQNED
Val: 0.97

Binder: IL-18 variant G3E, E6G, N91M, R104A (ligand) YFEKLGSKLSVIRNLNDQVLFIDQGNRPLFEDMTDSDMRDNAPRTIFIISMYKDSQPRGMAVTISVKSEKISTLSSENKIISFKEMNPPDMIKDTKSDIIFFQASVPGHDNKMQFESSSYEGYFLASEKERDLFKLILKKEDELGDRSIMFTVQNED
Val: 2.92

Binder: IL-18 variant G3R, L5W, E6H, D54Y, Q56H, N91R (ligand) YFRKWHSKLSVIRNLNDQVLFIDQGNRPLFEDMTDSDMRDNAPRTIFIISMYKYSHPRGMAVTISVKSEKISTLSSENKIISFKEMNPPDRIKDTKSDIIFFQRSVPGHDNKMQFESSSYEGYFLASEKERDLFKLILKKEDELGDRSIMFTVQNED
Val: 1.01

Binder: IL-18 variant E6G, D54A, S55K, T63S, N91K, Q114R (ligand) YFGKLGSKLSVIRNLNDQVLFIDQGNRPLFEDMTDSDMRDNAPRTIFIISMYKAKQPRGMAVSISVKSEKISTLSSENKIISFKEMNPPDKIKDTKSDIIFFQRSVPGHDNKMRFESSSYEGYFLASEKERDLFKLILKKEDELGDRSIMFTVQNED
Val: 3.3

Binder: IL-18 variant G3P, E6K, K53T, D54Y, S55V, T63I, N91I (ligand) YFPKLKSKLSVIRNLNDQVLFIDQGNRPLFEDMTDSDMRDNAPRTIFIISMYTYVQPRGMAVIISVKSEKISTLSSENKIISFKEMNPPDIIKDTKSDIIFFQRSVPGHDNKMQFESSSYEGYFLASEKERDLFKLILKKEDELGDRSIMFTVQNED
Val: 0.93

Binder: IL-18 variant G3L, E6S, D54T, T63S, N91Y, R104Q (ligand) YFLKLSSKLSVIRNLNDQVLFIDQGNRPLFEDMTDSDMRDNAPRTIFIISMYKTSQPRGMAVSISVKSEKISTLSSENKIISFKEMNPPDYIKDTKSDIIFFQQSVPGHDNKMQFESSSYEGYFLASEKERDLFKLILKKEDELGDRSIMFTVQNED
Val: 1.2

Binder: IL-18 variant G3P, E6H, D54A, S55P, Q56K, T63S, N91M (ligand) YFPKLHSKLSVIRNLNDQVLFIDQGNRPLFEDMTDSDMRDNAPRTIFIISMYKAPKPRGMAVSISVKSEKISTLSSENKIISFKEMNPPDMIKDTKSDIIFFQRSVPGHDNKMQFESSSYEGYFLASEKERDLFKLILKKEDELGDRSIMFTVQNED
Val: 0.9

Binder: IL-18 variant G3L, E6Q, T63S, N91L, R104T (ligand) YFLKLQSKLSVIRNLNDQVLFIDQGNRPLFEDMTDSDMRDNAPRTIFIISMYKDSQPRGMAVSISVKSEKISTLSSENKIISFKEMNPPDLIKDTKSDIIFFQTSVPGHDNKMQFESSSYEGYFLASEKERDLFKLILKKEDELGDRSIMFTVQNED
Val: 4

Binder: IL-18 variant G3P, E6K, K53N, D54S, S55P, T63S, N91S, R104Q (ligand) YFPKLKSKLSVIRNLNDQVLFIDQGNRPLFEDMTDSDMRDNAPRTIFIISMYNSPQPRGMAVSISVKSEKISTLSSENKIISFKEMNPPDSIKDTKSDIIFFQQSVPGHDNKMQFESSSYEGYFLASEKERDLFKLILKKEDELGDRSIMFTVQNED
Val: 0.95

Binder: IL-18 variant G3S, E6Q, K53N, D54T, S55N, T63A, I80T, N91S (ligand) YFSKLQSKLSVIRNLNDQVLFIDQGNRPLFEDMTDSDMRDNAPRTIFIISMYNTNQPRGMAVAISVKSEKISTLSSENKTISFKEMNPPDSIKDTKSDIIFFQRSVPGHDNKMQFESSSYEGYFLASEKERDLFKLILKKEDELGDRSIMFTVQNED
Val: 0.71

Binder: IL-18 variant N91S, R104H (ligand) YFGKLESKLSVIRNLNDQVLFIDQGNRPLFEDMTDSDMRDNAPRTIFIISMYKDSQPRGMAVTISVKSEKISTLSSENKIISFKEMNPPDSIKDTKSDIIFFQHSVPGHDNKMQFESSSYEGYFLASEKERDLFKLILKKEDELGDRSIMFTVQNED
Val: 1.72
